experiment: Stability in simulated intestinal fluid; format: in vitro ADME; details: 2 μM peptidomimetic, simulated intestinal fluid pH 7.5, 37° C.; read-out: half-life (t1/2) when incubated with simulated intestinal fluid
metric: half-life at 2 μM (min)

compound	metric	unit.text	endpoint.result
CCc1cc(OC)ccc1-c1ccc(CC(NC(=O)[C@H](CC(=O)O)NC(=O)[C@H](CO)NC(=O)[C@@H](NC(=O)C(C)(Cc2ccccc2F)NC(=O)[C@@H](NC(=O)CNC(=O)[C@H](CC(C(F)(F)F)C(F)(F)F)NC(=O)C(C)(C)NC(=O)[C@@H](N)Cc2c[nH]cn2)[C@@H](C)O)[C@@H](C)O)C(=O)NC(CCCc2ccccc2)C(N)=O)cc1 (stereo partly shown)	half-life at 2 μM	min	30
